These entries and their values trace back to PubChem BioAssay (NCI).

Can you tell me TGI for the items I'm about to list?
test system: SW-620 colon; assay: NCI tumour cell line growth inhibition, 48 h

Reference set, count: 10
>>> val("Cc1ccc(S(=O)(=O)N2CCC[C@@H]2C(=O)O[C@@H]2CCC3CC=CC32)cc1 (some centres not stated)")
"> 100 µM"
>>> val("CC#C[C@]1(O)CCC2[C@@H]3CCC4=CC(=O)CCC4=C3[C@@H](c3ccc(N(C)C)cc3)C[C@@]21C (some centres not stated)")
"> 100 µM"
>>> val("COC(=O)CNC(=O)C(Cc1ccccc1)NC(=O)c1ccc(-c2ccc(Cl)cc2Cl)o1 (configuration not stated)")
"> 100 µM"
>>> val("COc1cc(OC)cc(Oc2cnc3cc(N)cc(N)c3n2)c1")
"43.7 µM"
>>> val("CC(C)(C)NC1=NC(C(F)(F)F)(C(F)(F)F)NC(=O)N1")
"> 100 µM"
>>> val("N#CC(C#N)=CNCCN1CCN(C=C(C#N)C#N)CC1")
"> 100 µM"
>>> val("CC1=NN(C(=O)Cc2ccccc2)C(=O)/C1=C\\c1ccc([N+](=O)[O-])cc1")
"> 100 µM"
>>> val("Fc1ccc(-c2sc(-c3ccsc3)cc2Cc2ccsc2)cc1")
"> 10 µM"
>>> val("C/C(CCC(=O)O)=N/Nc1ccc([N+](=O)[O-])cc1")
"> 100 µM"
>>> val("Oc1c(CN2CCCC2)ccc2cccnc12")
"> 100 µM"

// batch mode: one TGI value per listed entry
1. COC1=CC(c2ccc[nH]2)=N/C1=C\c1[nH]c(C)c(C(=O)CCC(=O)Oc2ccc3c(c2)CCC2C3CC[C@]3(C)[C@@H](O)CC[C@@H]23)c1C (some centres not stated)
2. Cc1c(Cc2ccccc2)n(C(C)OCCN(OC(=O)Oc2ccccc2)C(=O)Oc2ccccc2)c(=O)[nH]c1=O (configuration not stated)
3. Cn1c(-c2ccc[se]2)ccc1-c1ccc(C=O)[se]1
4. O=[N+]([O-])c1ccc(/C=C/c2nc3ccc(Cl)cc3[nH]2)cc1
5. CCOC(=O)c1[nH]cc(C)c1-c1cccn1-c1ccc(Cl)cc1[N+](=O)[O-]
6. COc1cccc2c1NC(=O)Cc1c-2[nH]c2ccccc12
7. O=C(/C=C/C12c3ccccc3C(c3ccccc31)C1C(=O)N(c3ccc(Cl)cc3)C(=O)C12)c1ccccn1 (configuration not stated)
8. Cc1c(C(=O)O)n2c(=S)[nH]nc2c2ccccc12

Data returned:
5.14 µM
41.7 µM
> 51.6 µM
> 100 µM
> 100 µM
> 100 µM
0.994 µM
> 100 µM

Okay, here is my list. What is TGI for each of these?
1. CC(c1cc(Cl)ccc1O)c1cc(Cl)ccc1O
2. c1ccc2c(c1)SC(=C1Sc3ccccc3S1)S2
3. COc1ccc2nc3c([N+](=O)[O-])ccc(NCCN(C)C)c3c(N)c2c1
4. N/C=N/S(=O)(=O)c1ccc(NC(=O)COC(=O)c2cccc3c(=O)c4ccccc4[nH]c23)cc1
5. N#Cc1c(N)oc(-c2ccc([N+](=O)[O-])cc2)c1C#N
6. CCC(C)(C)c1cc(O)c(C(C)(C)CC)cc1O
7. Cc1cc(Cl)nc2ccc(Cc3ccc4nc(Cl)cc(C)c4c3)cc12
8. CCCCCCCCCCNCCSSCc1ccc(Cl)cc1

Data returned:
1. 13.3 µM
2. > 100 µM
3. 0.562 µM
4. > 100 µM
5. > 100 µM
6. 6.89 µM
7. > 100 µM
8. 3.02 µM

For every record below, what is its TGI?
1. CN(C)C1CCN(Cc2ccc(NC(=O)c3cncc(C#Cc4cnc(N)c5ncccc45)c3)cc2C(F)(F)F)CC1
2. CCC12CCCN(Cc3ccccc3)C1c1c(n(C)c3ccccc13)C(CO)C2 (configuration not stated)
3. O=C(C=Nc1ccccc1C(=O)[O-])c1cccs1.O=C(C=Nc1ccccc1C(=O)[O-])c1cccs1.[Ni+2]
4. O=C(NC(=S)Nc1ccc([N+](=O)[O-])cc1)c1ccc2c(c1)Sc1ccccc1O2
5. CN(C)Cc1c(O)ccc2c1c1c(n2C)C(=O)c2ccccc2C1=O
6. COc1cc2c(NCCCCCO)ncnc2c(OC)c1OC
7. C/C=C1/CN2CCC34c5ccccc5N(C)C23C2CC1C4(C(=O)OC)C(OC(C)=O)O2 (configuration not stated)
8. Cc1ccc(/C=C/C(=O)Oc2ccc(/C=C3\CCC/C(=C\c4ccc(OC(=O)/C=C/c5ccc(C)cc5)cc4)C3=O)cc2)cc1

Data returned:
4.03 µM
89.2 µM
> 100 µM
> 100 µM
> 100 µM
> 100 µM
> 100 µM
> 100 µM

// input: 4 compounds below; output: TGI for each
1. COC(=O)CN(CC(=O)NCCCBr)C1CCCCC1N(CC(=O)OC)CC(=O)OC (configuration not stated)
2. Cc1cc(=O)[nH]c(CNC(=O)c2ccc3ccccc3c2)n1
3. Cn1cnc(N2CCCC2)c(C#N)c1=S
4. CN(C)CN1CSC(=S)N(CN(C)C)C1

Data returned:
1: > 100 µM; 2: > 100 µM; 3: > 100 µM; 4: > 100 µM
